Origin of values: patent US20170306013A1

# TEST TARGET: T1, KP1.2 peptide of the D2E2 loop of the Nav1.7 channel (human, not fully specified)
# T1 construct: also called human NAV1.7 peptide
# T1 peptide: H-VELFLADVEGC-NH2
# ASSAY: DELFIA: KP1.2 peptide on streptavidin plate, purified antibody undiluted, Eu-labelled anti-human IgG, time-resolved fluorescence at 615 nm
# Experimental: Four mice were immunised substantially as detailed in Table 6. The immunisations of Boost 6 each used 3 μg of KP1.2-KLH and 3 μg KP5.1-KLH, adjuvanted with IFA, CpG and Alum as set out in Table 6. A seventh booster immunisation was added, which consisted of 2 μg of KP1.2-KLH and 2 μg KP5.1-KLH, adjuvanted with IFA, CpG and Alum as set out in Table 6. Antibodies were isolated from these mice. […]

{"BINDER": "35E11 (antibody, V domains shown) VH: QVQLVQSGAEVRKPGASVKVSCKASGYTFTDYAIHWVRQAPGQRLEWMGWIIVGNGKTRYAQKLQGRVTITWETSASTAYMDLTSLRSEDTAVYYCARGFTMVRGAPYYDGLDVWGQGTTVTVSS VL: DIVMTQSPLSLPVTPGEPASISCRSSQSLLYSTGYNYLDWYLQKPGLSPHLLIYLGSNRASGVPDRFSGSGSGTDFTLKISRVEAEDVGVYYCMQALQTPTFGGGTKVEIK", "binding result": "binds"}
